Measured Ratio values are reported for all entries that follow.
- target_desc: Adenosine receptors; A1 & A3 (Homo sapiens) (UniProt P30542+P0DMS8)
- Sequence (P0DMS8 whole entry, looked up): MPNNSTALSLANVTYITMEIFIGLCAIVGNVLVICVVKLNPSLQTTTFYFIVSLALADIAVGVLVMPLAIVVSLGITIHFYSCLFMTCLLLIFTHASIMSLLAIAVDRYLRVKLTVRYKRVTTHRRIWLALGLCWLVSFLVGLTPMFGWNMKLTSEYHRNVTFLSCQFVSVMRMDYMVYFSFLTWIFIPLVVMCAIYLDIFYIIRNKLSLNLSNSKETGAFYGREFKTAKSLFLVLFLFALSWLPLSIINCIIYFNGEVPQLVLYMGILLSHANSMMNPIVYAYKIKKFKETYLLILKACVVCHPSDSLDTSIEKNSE
- Sequence (P30542 whole entry, looked up): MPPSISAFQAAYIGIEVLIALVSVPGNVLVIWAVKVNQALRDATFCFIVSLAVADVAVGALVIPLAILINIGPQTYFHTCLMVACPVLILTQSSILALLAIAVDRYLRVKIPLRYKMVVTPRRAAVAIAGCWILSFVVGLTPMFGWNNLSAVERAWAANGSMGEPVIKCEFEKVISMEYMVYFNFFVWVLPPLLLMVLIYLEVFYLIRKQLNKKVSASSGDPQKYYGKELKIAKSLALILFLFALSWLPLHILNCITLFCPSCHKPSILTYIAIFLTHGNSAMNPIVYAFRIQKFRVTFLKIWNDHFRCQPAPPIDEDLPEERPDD
- method_notes: Ratio of binding affinity for adenosine A3 receptor to adenosine A1 receptor
- Assay type: protein assay
Could you keep your reply to the number by itself?

# molecule_smiles, Ratio
data = [
    ("Nc1nc(NC(=O)CCC2CCCC2)nc2c1ncn2[C@@H]1O[C@H](CO)[C@@H](O)[C@H]1O", 4),
    ("Nc1nc(NC(=O)/C=C/c2ccccc2)nc2c1ncn2[C@@H]1O[C@H](CO)[C@@H](O)[C@H]1O", 13),
    ("Nc1nc(NC(=O)CCc2ccccc2)nc2c1ncn2[C@@H]1O[C@H](CO)[C@@H](O)[C@H]1O", 6),
    ("CCNc1nc(NC(=O)CC2CCCCC2)nc2c1ncn2[C@@H]1O[C@H](CO)[C@@H](O)[C@H]1O", 0.9),
]

// sample O=C(CCC1CCCC1)Nc1nc(NC2CCCC2)c2ncn([C@@H]3O[C@H](CO)[C@@H](O)[C@H]3O)c2n1 , its Ratio was 44
